- ASSAYED_SYSTEM: wt_RBD-AviHis (SARS-CoV-2 (original Wuhan strain))
- ASSAY_TEXT: BLI (Octet), biotinylated RBD on streptavidin biosensors, VHH in solution
RECORDED_ENDPOINT: Kd

Solved entries (count: 3):
# BINDER, Kd
data = [
    ("Re32C08 (VHH) VHH: QVQLVESGGGLVQPGGSLRLSCETSGITLDYYAIGWFLQAPGKEREGVACMRNWDGSTVYAPSVKGRFTISRDNDKKAAYLEMNSLKSEDTGVYYCAAGPLPPGHSCRIPTPLGYDDWGQGTQVTVSS", "≤ 10 pM"),
    ("Re32B02 (VHH) VHH: QVQLVESGGGLVQPGGSLRLSCATSGITLDYYAIGWFLQAPGKEREGVSCMRSSDGSTVYAPSVKGRFTISRDNAKKMVYLEMNSLKSEDTGVYYCAAGPLPPGTSCRIPTPLGYDDWGQGTQVTVSS", "≤ 10 pM"),
    ("Re32A10 (VHH) VHH: QVQLVESGGGLVQPGGSLRLSCATSGITLDYYAIGWFLQAPGKEREGVSCMRSSDGSTVYAPSVKGRFTISRDNAKKMVYLEMNSLKSEDTGVYYCAAGPLPPGTSCRIPTPLGYDDWGQGTQVTVSS", "4 pM"),
]

Query binder follows.
Asked: Query (binder): Ma6F06 (VHH) VHH: QVQLVESGGGLVQPGGSLRLSCATSGITLDYYAIGWFLQVPGKEREGVACMRNWDGSTLYAPSVKGRFTISRDADKEVAYLEMNSLKSEDTGVYYCAAGPLPPGHSCRIPTPLGYDDWGQGTQVTVSS ; field requested: Kd
Given back: ≤ 10 pM
